Form field: AUC (one value per entry).
Test: Pharmacokinetic study of oral co-administration of SK14-061a and ETV in rats
Assay type: in vivo
Conditions: rat, plasma, po, 1 mg/kg; read-out: AUC
Report only the number, with the unit ng·h/mL understood.

INSERT INTO results (molecule, value_measured) VALUES
  ('N#C[C@]1(CO)O[C@@H](n2cnc3c(O)ncnc32)C[C@@H]1O [SK14-061a, 4′-cyano-2′-deoxyinosine]', 972);

Turning now to a further molecule:
Which measured AUC value corresponds to `C=C1[C@H](CO)[C@@H](O)C[C@@H]1n1cnc2c(=O)[nH]c(N)nc21` ?
492
